Subject Of Test: PKMYT1 enzyme (Homo sapiens, UniProt Q99640)
Construct: purchased Thermo Scientific A33387
Sequence (Q99640 1-499): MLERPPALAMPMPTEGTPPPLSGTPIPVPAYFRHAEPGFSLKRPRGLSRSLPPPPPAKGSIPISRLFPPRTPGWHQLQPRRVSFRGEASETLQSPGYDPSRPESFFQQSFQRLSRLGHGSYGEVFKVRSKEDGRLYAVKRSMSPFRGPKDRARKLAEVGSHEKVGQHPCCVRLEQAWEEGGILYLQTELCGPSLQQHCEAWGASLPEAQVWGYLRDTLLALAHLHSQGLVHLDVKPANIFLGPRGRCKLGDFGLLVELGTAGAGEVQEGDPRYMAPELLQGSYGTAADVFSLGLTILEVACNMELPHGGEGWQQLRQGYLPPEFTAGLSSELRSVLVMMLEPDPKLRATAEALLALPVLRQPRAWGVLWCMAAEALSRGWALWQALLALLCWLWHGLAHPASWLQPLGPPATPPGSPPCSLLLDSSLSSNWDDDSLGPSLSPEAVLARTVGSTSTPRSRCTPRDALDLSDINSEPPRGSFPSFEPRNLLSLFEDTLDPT
Assay Method Text: PKMYT1 enzyme inhibition activity, ADP-GLO method
Assay type: biochemical
Experimental Parameters: PKMYT1 enzyme 10 nM, ATP 5 µM, 37°C 90 minutes; read-out: ADP-GLO IC50
# IC50 annotations
Quantity Kind: IC50 (nM)

[[record]]
compound = "Cc1cc(F)c(O)c(C)c1-n1c(N)c(C(N)=O)c2cc(C(C)(C)O)c(C)nc21 (racemic) [Example 172]"
quantity_kind = "IC50"
units = "nM"
recorded_number = 16.4

[[record]]
compound = "Cc1cc(F)c(O)c(C)c1-n1c(N)c(C(N)=O)c2cc3c(nc21)CCCC3 (atropisomer, axis not shown) [Example 177.2]"
quantity_kind = "IC50"
units = "nM"
recorded_number = 8.15

[[record]]
compound = "Cc1nc2c(cc1C1CCCC1)c(C(N)=O)c(N)n2-c1c(C)c(O)cc(F)c1C"
quantity_kind = "IC50"
units = "nM"
recorded_number = 33.8

[[record]]
compound = "Cc1cc2c(C(N)=O)c(N)n(-c3c(C)cc(F)c(O)c3C)c2nc1Cl"
quantity_kind = "IC50"
units = "nM"
recorded_number = 7.11

[[record]]
compound = "C=Cc1cc2c(C(N)=O)c(N)n(-c3c(C)cc(F)c(O)c3C)c2nc1C (atropisomer, axis not shown) [Example 142]"
quantity_kind = "IC50"
units = "nM"
recorded_number = 20.7

[[record]]
compound = "Cc1cc(F)c(O)c(C)c1-n1c(N)c(C(N)=O)c2c3c(cnc21)CCC3 (atropisomer, axis not shown) [Example 186.2]"
quantity_kind = "IC50"
units = "nM"
recorded_number = 3.91

[[record]]
compound = "COc1cc2c(C(N)=O)c(N)n(-c3c(C)cc(F)c(O)c3C)c2nc1C (racemic) [Example 158]"
quantity_kind = "IC50"
units = "nM"
recorded_number = 8.18


---

# IC50 annotations
Subject Of Test: PKMYT1 enzyme (Homo sapiens, UniProt Q99640)
Construct: purchased Thermo Scientific A33387
Assay Method Text: PKMYT1 enzyme inhibition activity, ADP-GLO method
Type: biochemical
Experimental Parameters: PKMYT1 enzyme 10 nM, ATP 5 µM, 37°C 90 minutes; read-out: ADP-GLO IC50
Quantity Kind: IC50 (nM)

[[record]]
molecule = "COc1cc2c(C(N)=O)c(N)n(-c3c(C)cc(F)c(O)c3C)c2nc1C (atropisomer, axis not shown) [Example 158.1]"
quantity_kind = "IC50"
units = "nM"
recorded_number = 7.5

[[record]]
molecule = "Cc1c(O)cc(F)c(C)c1-n1c(N)c(C(N)=O)c2c3cnccc3c(C)cc21 [Example 208]"
quantity_kind = "IC50"
units = "nM"
recorded_number = 4.52

[[record]]
molecule = "C=C(C)c1cc2c(C(N)=O)c(N)n(-c3c(C)cc(F)c(O)c3C)c2nc1C [Example 156]"
quantity_kind = "IC50"
units = "nM"
recorded_number = 26.4

[[record]]
molecule = "Cc1ccc(O)c(C)c1-n1c(N)c(C(N)=O)c2cnc(NCC(F)F)nc21 [Example 77]"
quantity_kind = "IC50"
units = "nM"
recorded_number = 20.2

[[record]]
molecule = "Cc1cc(F)c(O)c(C)c1-n1c(N)c(C(N)=O)c2cc(C(C)C)c(C)nc21 (atropisomer, axis not shown) [Example 159.1]"
quantity_kind = "IC50"
units = "nM"
recorded_number = 4.42

[[record]]
molecule = "Cc1cc(F)c(O)c(C)c1-n1c(N)c(C(N)=O)c2cc(C(C)(C)O)c(C)nc21 (atropisomer, axis not shown) [Example 172.1]"
quantity_kind = "IC50"
units = "nM"
recorded_number = 4.6

[[record]]
molecule = "Cc1cc2c(C(N)=O)c(N)n(-c3c(C)cc(F)c(O)c3C)c2nc1F [Example 73]"
quantity_kind = "IC50"
units = "nM"
recorded_number = 13.4

